- measured target: PPAT (amidophosphoribosyltransferase) (Homo sapiens, UniProt Q06203)
- Construct: with NUDT5
- Sequence (Q06203 12-517): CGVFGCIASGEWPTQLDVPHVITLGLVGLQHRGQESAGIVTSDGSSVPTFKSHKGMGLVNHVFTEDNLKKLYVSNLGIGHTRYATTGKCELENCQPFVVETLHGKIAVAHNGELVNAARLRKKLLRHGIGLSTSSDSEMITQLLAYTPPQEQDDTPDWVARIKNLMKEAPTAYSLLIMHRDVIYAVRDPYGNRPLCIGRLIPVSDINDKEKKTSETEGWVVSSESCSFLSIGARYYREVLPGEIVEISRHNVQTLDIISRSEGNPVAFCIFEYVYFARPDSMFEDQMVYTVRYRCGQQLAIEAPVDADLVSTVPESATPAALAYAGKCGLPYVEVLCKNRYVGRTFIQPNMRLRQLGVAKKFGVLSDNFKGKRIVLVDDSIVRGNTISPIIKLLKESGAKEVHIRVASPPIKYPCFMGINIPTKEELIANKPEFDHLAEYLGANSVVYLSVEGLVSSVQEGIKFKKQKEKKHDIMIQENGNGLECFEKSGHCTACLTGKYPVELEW
- Sequence (O95848 whole entry partner): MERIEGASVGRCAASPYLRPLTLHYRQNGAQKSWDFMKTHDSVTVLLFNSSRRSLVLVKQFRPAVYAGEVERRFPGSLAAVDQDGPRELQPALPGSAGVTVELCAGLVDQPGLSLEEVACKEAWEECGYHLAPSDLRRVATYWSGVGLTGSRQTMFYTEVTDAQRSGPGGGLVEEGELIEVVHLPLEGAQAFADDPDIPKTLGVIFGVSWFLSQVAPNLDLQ
- assay summary: native PAGE of K562 lysate with PRPP dose curve (loss of NUDT5-PPAT oligomer); co-immunoprecipitation with […] PRPP
test readout: pIC50
// pIC50 here means minus log10 of the molar concentration (mol/L)

stdin: Field: pIC50 (PPAT (amidophosphoribosyltransferase) (Homo sapiens, UniProt Q06203)). Entry: O=P(O)(O)OC[C@H]1OC(OP(=O)(O)OP(=O)(O)O)[C@H](O)[C@@H]1O (stereo partly shown) [PRPP, phosphoribosyl pyrophosphate]
stdout: 4.00
